ASSAYED SYSTEM: T1, CD226 (human) (UniProt Q15762)
T1 sequence: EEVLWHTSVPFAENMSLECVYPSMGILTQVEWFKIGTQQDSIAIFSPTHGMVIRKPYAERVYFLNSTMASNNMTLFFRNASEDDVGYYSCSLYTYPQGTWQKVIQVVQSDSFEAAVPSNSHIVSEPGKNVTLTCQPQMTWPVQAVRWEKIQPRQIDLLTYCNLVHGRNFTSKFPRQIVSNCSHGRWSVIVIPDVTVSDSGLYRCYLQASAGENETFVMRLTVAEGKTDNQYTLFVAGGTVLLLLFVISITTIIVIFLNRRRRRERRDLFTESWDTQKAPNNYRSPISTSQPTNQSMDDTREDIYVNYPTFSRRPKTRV
EXPERIMENT NOTES: flow cytometry, transfected cells
Param label: returns class 1 when MFI < 200000, returns class 0 otherwise, including exact equality.

Q: A record lists CD155 G7E, P18T, Y30C, F91S IgV-Fc (Fc fusion, not shown: a dimerising Fc or GST; small tags and cut ends) PGTEDVVVQAPTQVTGFLGDSVTLPCCLQVPNMEVTHVSQLTWARHGESGSMAVFHQTQGPSYSESKRLEFVAARLGAELRNASLRMSGLRVEDEGNYTCLFVTFPQGSRSVDIWL . Is its MFI below 200000?
Ans: class 1

Q: A record lists CD155 P18T, F91S, F108L IgV-Fc (Fc fusion, not shown: a dimerising Fc or GST; small tags and cut ends) PGTGDVVVQAPTQVTGFLGDSVTLPCYLQVPNMEVTHVSQLTWARHGESGSMAVFHQTQGPSYSESKRLEFVAARLGAELRNASLRMSGLRVEDEGNYTCLFVTLPQGSRSVDIWL . Is its MFI below 200000?
Ans: class 0

Q: A record lists CD155 P18S, Y30C, F91S IgV-Fc (Fc fusion, not shown: a dimerising Fc or GST; small tags and cut ends) PGTGDVVVQAPTQVSGFLGDSVTLPCCLQVPNMEVTHVSQLTWARHGESGSMAVFHQTQGPSYSESKRLEFVAARLGAELRNASLRMSGLRVEDEGNYTCLFVTFPQGSRSVDIWL . Is its MFI below 200000?
Ans: class 0

Q: A record lists CD155 P18T, F91S IgV-Fc (Fc fusion, not shown: a dimerising Fc or GST; small tags and cut ends) PGTGDVVVQAPTQVTGFLGDSVTLPCYLQVPNMEVTHVSQLTWARHGESGSMAVFHQTQGPSYSESKRLEFVAARLGAELRNASLRMSGLRVEDEGNYTCLFVTFPQGSRSVDIWL . Is its MFI below 200000?
Ans: class 0

Q: A record lists CD155 L88P IgV-Fc (Fc fusion, not shown: a dimerising Fc or GST; small tags and cut ends) PGTGDVVVQAPTQVPGFLGDSVTLPCYLQVPNMEVTHVSQLTWARHGESGSMAVFHQTQGPSYSESKRLEFVAARLGAELRNASPRMFGLRVEDEGNYTCLFVTFPQGSRSVDIWL . Is its MFI below 200000?
Ans: class 1

Q: A record lists CD155 R94H IgV-Fc (Fc fusion, not shown: a dimerising Fc or GST; small tags and cut ends) PGTGDVVVQAPTQVPGFLGDSVTLPCYLQVPNMEVTHVSQLTWARHGESGSMAVFHQTQGPSYSESKRLEFVAARLGAELRNASLRMFGLHVEDEGNYTCLFVTFPQGSRSVDIWL . Is its MFI below 200000?
Ans: class 1

Q: A record lists CD155 P18T, S42P, F91S IgV-Fc (Fc fusion, not shown: a dimerising Fc or GST; small tags and cut ends) PGTGDVVVQAPTQVTGFLGDSVTLPCYLQVPNMEVTHVPQLTWARHGESGSMAVFHQTQGPSYSESKRLEFVAARLGAELRNASLRMSGLRVEDEGNYTCLFVTFPQGSRSVDIWL . Is its MFI below 200000?
Ans: class 0

Q: A record lists CD155 A13E, P18S, A56V, F91S IgV-Fc (Fc fusion, not shown: a dimerising Fc or GST; small tags and cut ends) PGTGDVVVQEPTQVSGFLGDSVTLPCYLQVPNMEVTHVSQLTWARHGESGSMVVFHQTQGPSYSESKRLEFVAARLGAELRNASLRMSGLRVEDEGNYTCLFVTFPQGSRSVDIWL . Is its MFI below 200000?
Ans: class 0

Q: A record lists CD155 L44P IgV-Fc (Fc fusion, not shown: a dimerising Fc or GST; small tags and cut ends) PGTGDVVVQAPTQVPGFLGDSVTLPCYLQVPNMEVTHVSQPTWARHGESGSMAVFHQTQGPSYSESKRLEFVAARLGAELRNASLRMFGLRVEDEGNYTCLFVTFPQGSRSVDIWL . Is its MFI below 200000?
Ans: class 0

Q: A record lists CD155 P18T, F91S, V115A IgV-Fc (Fc fusion, not shown: a dimerising Fc or GST; small tags and cut ends) PGTGDVVVQAPTQVTGFLGDSVTLPCYLQVPNMEVTHVSQLTWARHGESGSMAVFHQTQGPSYSESKRLEFVAARLGAELRNASLRMSGLRVEDEGNYTCLFVTFPQGSRSADIWL . Is its MFI below 200000?
Ans: class 1

Q: A record lists CD155 P18S, F91S, L104P IgV-Fc (Fc fusion, not shown: a dimerising Fc or GST; small tags and cut ends) PGTGDVVVQAPTQVSGFLGDSVTLPCYLQVPNMEVTHVSQLTWARHGESGSMAVFHQTQGPSYSESKRLEFVAARLGAELRNASLRMSGLRVEDEGNYTCPFVTFPQGSRSVDIWL . Is its MFI below 200000?
Ans: class 1

Q: A record lists CD155 P18T, T45A, F91S IgV-Fc (Fc fusion, not shown: a dimerising Fc or GST; small tags and cut ends) PGTGDVVVQAPTQVTGFLGDSVTLPCYLQVPNMEVTHVSQLAWARHGESGSMAVFHQTQGPSYSESKRLEFVAARLGAELRNASLRMSGLRVEDEGNYTCLFVTFPQGSRSVDIWL . Is its MFI below 200000?
Ans: class 0

Q: A record lists CD155 P18T, Q60K IgV-Fc (Fc fusion, not shown: a dimerising Fc or GST; small tags and cut ends) PGTGDVVVQAPTQVTGFLGDSVTLPCYLQVPNMEVTHVSQLTWARHGESGSMAVFHKTQGPSYSESKRLEFVAARLGAELRNASLRMFGLRVEDEGNYTCLFVTFPQGSRSVDIWL . Is its MFI below 200000?
Ans: class 0

Q: A record lists CD155 P18S, P64S, F91S IgV-Fc (Fc fusion, not shown: a dimerising Fc or GST; small tags and cut ends) PGTGDVVVQAPTQVSGFLGDSVTLPCYLQVPNMEVTHVSQLTWARHGESGSMAVFHQTQGSSYSESKRLEFVAARLGAELRNASLRMSGLRVEDEGNYTCLFVTFPQGSRSVDIWL . Is its MFI below 200000?
Ans: class 0

Measured values drawn from patent US20200040059A1 for this set.
